Molecular target: PYR1^M/ΔN-HAB1^T+ (Arabidopsis thaliana, UniProt O49686, H60P/N90S)
Construct: made in house; host or cells: E. coli
Sequence (O49686 whole entry H60P/N90S, other chains not shown): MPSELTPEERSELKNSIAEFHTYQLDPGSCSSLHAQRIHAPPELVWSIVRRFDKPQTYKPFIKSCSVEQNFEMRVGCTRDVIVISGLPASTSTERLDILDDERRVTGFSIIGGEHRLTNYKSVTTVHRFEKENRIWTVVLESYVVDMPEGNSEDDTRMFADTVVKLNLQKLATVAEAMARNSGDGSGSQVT
Test: PYR1 ELISA-like plate assay, immobilized PYR1^M with biotinylated ΔN-HAB1^T+
Format: binding
Details: global nonlinear fit; KD2 = binding constant of HAB1 variant (ΔN-HAB1^T+) for PYR1^M with ABA; Biorep 1; read-out: KD2
Description: PYR1 was immobilized overnight in clear plates, blocked with KPL milk diluent in buffer CBS ^17 (CBSM). All binding reactions were performed using CBSM. […] Lower limits of detection (LODs) were determined by linear regression of the response data in the low linear range using the formula LOD=3σy/m, where m is the slope of the response line and σy is the standard error of the y intercept using data combined from biological replicates. […]
pKd: −log10 of the molar value.
property-name: pKd

1) CC1=CC(=O)CC(C)(C)[C@@]1(O)/C=C/C(C)=C\C(=O)O [ABA, abscisic acid] :: 8.10

----------
Target: PYR1^DIAZI (Arabidopsis thaliana, UniProt O49686, A160V/E8G/F108Y/F159G/L87M/M158V/V81Y)
Construct: expressed in transfected cells; host or cells: S. cerevisiae (2µ plasmid)
Test: cell-based
pEC50: −log10 of the molar value.
property-name: pEC50

1) CCN(CC)c1nc(C)cc(OP(=S)(OC)OC)n1 [Pirimiphos, pirimiphos-methyl] :: 4.76

----------
Molecular target: PYR1^M/ΔN-HAB1^T+ (Arabidopsis thaliana, UniProt O49686, H60P/N90S)
Construct: made in house; host or cells: E. coli
Test: PYR1 ELISA-like plate assay, immobilized PYR1^M with biotinylated ΔN-HAB1^T+
Format: binding
Details: global nonlinear fit, PYR1^M/ABA/ΔN-HAB1^T+ system; Biorep 2; read-out: KD1
Experimental: PYR1 was immobilized overnight in clear plates, blocked with KPL milk diluent in buffer CBS ^17 (CBSM). All binding reactions were performed using CBSM. […] Lower limits of detection (LODs) were determined by linear regression of the response data in the low linear range using the formula LOD=3σy/m, where m is the slope of the response line and σy is the standard error of the y intercept using data combined from biological replicates. […]
property-name: Kd (µM)

1. CC1=CC(=O)CC(C)(C)[C@@]1(O)/C=C/C(C)=C\C(=O)O [ABA, abscisic acid] :: 0.78

----------
Target: PYR1^DIAZI (Arabidopsis thaliana, UniProt O49686, A160V/E8G/F108Y/F159G/L87M/M158V/V81Y)
Construct: expressed in transfected cells; host or cells: S. cerevisiae (2µ plasmid)
Assay: cell-based
Details: PYR1^DIAZI, yeast-transcription circuit; read-out: EC50
property-name: EC50 (µM)

1) CCOP(=S)(OCC)Oc1cc(C)nc(C(C)C)n1 :: 0.043

----------
Biological target: PYR1^PIRI (Arabidopsis thaliana, UniProt O49686, A160T/E130G/F159T/K59R/N119S/S122Q/S92M/V174A)
Construct: expressed in transfected cells; host or cells: S. cerevisiae (2µ plasmid)
Assay: cell-based
Conditions: PYR1^PIRI, yeast-transcription circuit, strongest off-target response; read-out: EC50
property-name: EC50 (nM)

1) CCOP(=S)(OCC)Oc1cc(C)nc(C(C)C)n1 [Diazinon, diazinon] :: 1000

----------
Target: PYR1^M/ΔN-HAB1^T+ (Arabidopsis thaliana, UniProt O49686, H60P/N90S)
Construct: made in house; host or cells: E. coli
Experiment: PYR1 ELISA-like plate assay, immobilized PYR1^M with biotinylated ΔN-HAB1^T+
Assay type: binding
Conditions: global nonlinear fit; KD2 = binding constant of HAB1 variant (ΔN-HAB1^T+) for PYR1^M with ABA; Biorep 2; read-out: KD2
property-name: Kd (nM)

1) CC1=CC(=O)CC(C)(C)[C@@]1(O)/C=C/C(C)=C\C(=O)O [ABA, abscisic acid] :: 4
